Attribution: paper PMC8894159

- assay_name: Single ascending dose plasma pharmacokinetics in healthy volunteers
- Format: in vivo
- assay_context: human, single dose 10 mg oral solution, fasted, mean ± SD, read-out: Tmax
endpoint_name: Tmax

Incoming: Returns the measured Tmax for the input molecule. Input: "Cl.N#Cc1cccc(-c2ccc3ncc(-c4cc(F)cc(F)c4)c(N4CCC(N)CC4)c3c2)c1O"
Outgoing: 2.2 h

====

- assay_name: Multiple ascending dose plasma pharmacokinetics in healthy volunteers
- Type: in vivo, human
- assay_context: human, plasma, oral, 30 mg, 30 mg capsules once daily, Day 10; mean ± SD
endpoint_name: Tmax (h)
Number in h, nothing else.

Incoming: Returns the measured Tmax for the input molecule. Input: "Cl.N#Cc1cccc(-c2ccc3ncc(-c4cc(F)cc(F)c4)c(N4CCC(N)CC4)c3c2)c1O"
Outgoing: 4.5

====

- assay_name: Single ascending dose plasma pharmacokinetics in healthy volunteers
- Type: in vivo
- assay_context: human, single dose 2.5 mg oral solution, fasted, mean ± SD
endpoint_name: AUC(0-inf) (ng·h/mL)
Number in ng·h/mL, nothing else.

Incoming: Returns the measured AUC(0-inf) for the input compound. Input: "Cl.N#Cc1cccc(-c2ccc3ncc(-c4cc(F)cc(F)c4)c(N4CCC(N)CC4)c3c2)c1O"
Outgoing: 320

====

- assay_name: Multiple ascending dose plasma pharmacokinetics in healthy volunteers
- Type: in vivo, human
- assay_context: human, plasma, oral, 20 mg, 20 mg capsules once daily, Day 10; mean ± SD; read-out: AUC0-24
endpoint_name: AUC(0-t) (ng·h/mL)
Number in ng·h/mL, nothing else.

Incoming: Returns the measured AUC(0-t) for the input compound. Input: "Cl.N#Cc1cccc(-c2ccc3ncc(-c4cc(F)cc(F)c4)c(N4CCC(N)CC4)c3c2)c1O"
Outgoing: 1560

====

- assay_name: Multiple ascending dose plasma pharmacokinetics in healthy volunteers
- Type: in vivo, human
- assay_context: human, plasma, oral, 20 mg, 20 mg capsules once daily, Day 10; mean ± SD
endpoint_name: Cmax (ng/mL)
Number in ng/mL, nothing else.

Incoming: Returns the measured Cmax for the input compound. Input: Cl.N#Cc1cccc(-c2ccc3ncc(-c4cc(F)cc(F)c4)c(N4CCC(N)CC4)c3c2)c1O [paltusotine]
Outgoing: 132

====

- assay_name: Single ascending dose plasma pharmacokinetics in healthy volunteers
- Type: in vivo
- assay_context: human, single dose 1.25 mg oral solution, fasted, mean ± SD
endpoint_name: AUC(0-inf) (ng·h/mL)
Number in ng·h/mL, nothing else.

Incoming: Returns the measured AUC(0-inf) for the input compound. Input: Cl.N#Cc1cccc(-c2ccc3ncc(-c4cc(F)cc(F)c4)c(N4CCC(N)CC4)c3c2)c1O [paltusotine]
Outgoing: 122

====

- assay_name: Multiple ascending dose plasma pharmacokinetics in healthy volunteers
- Format: in vivo, human
- assay_context: human, plasma, oral, 30 mg, 30 mg capsules once daily, Day 10; mean ± SD; read-out: AUC0-24
endpoint_name: AUC(0-t) (ng·h/mL)
Number in ng·h/mL, nothing else.

Incoming: Returns the measured AUC(0-t) for the input compound. Input: "Cl.N#Cc1cccc(-c2ccc3ncc(-c4cc(F)cc(F)c4)c(N4CCC(N)CC4)c3c2)c1O"
Outgoing: 2080

====

- assay_name: Single ascending dose plasma pharmacokinetics in healthy volunteers
- Assay type: in vivo
- assay_context: human, oral, single dose 60 mg capsules, fasted, mean ± SD, read-out: t1/2 (converted)
endpoint_name: half-life (h)
Number in h, nothing else.

Incoming: Returns the measured half-life for the input compound. Input: "Cl.N#Cc1cccc(-c2ccc3ncc(-c4cc(F)cc(F)c4)c(N4CCC(N)CC4)c3c2)c1O"
Outgoing: 25
